Answer each item with its documented inhibition.
# Protocol notes: A qHTS for Small Molecule Inhibitors of Shiga Toxin
# Applied conditions: Vero cells, Shiga toxin protein synthesis inhibition reporter; at 38.7 µM, active compounds read high
The whole screen tested about 290,000 compounds, of which about 27,000 (9.3%) were called active. The sample holds actives, similar compounds and a random draw of the others, so the mix is not that of the screen.
Numbers only, in %.

# count of solved cases: 3
O=C(Nc1cccc(F)c1)NC1CCCc2ccccc21 (stereo unspecified); -2.03
S=C(NCCc1ccccc1)Nc1ccccc1; 57.4
O=C(CS(=O)(=O)Cc1ccccc1)NCC1CCCO1 (stereo unspecified); -4.38

Provide inhibition for all items below, preserving their order.
1. C/C(CC(=O)Nc1cccc(F)c1)=N\NC(=O)C(=O)NC1CCCCC1
2. COc1ccc(C(=O)NCCNc2ccc([N+](=O)[O-])cn2)cc1
3. O=C(CCNC(=O)C1CCN(S(=O)(=O)c2ccccc2)CC1)NC1CC1
4. Cc1ccc(NC(=O)CSCC(=O)NC2CCCCC2)cc1
5. CN1C(=O)[C@H]2[C@@H](C3CC3)N3C(=O)CN(Cc4ccccc4)C(=O)[C@@]3(C)[C@H]2C1=O

1. -4.86
2. -3.6
3. -1.38
4. 5.95
5. 1.87

* * *

# Protocol notes: A qHTS for Small Molecule Inhibitors of Shiga Toxin
# Applied conditions: Vero cells, Shiga toxin protein synthesis inhibition reporter; at 38.7 µM
Screen size: about 290,000 compounds; about 27,000 (9.3%) were called active. No stated cut-off is given here; in the data, active means inhibition mostly above about 28% (no sharp cut-off); inactive means mostly below about 43%. This is one part of a sample in which actives are shown more often than they occur.
Hello, when you answer, please use one of the following outcomes: active, inactive

Recorded results for 5 compounds are shown here.
CC(=O)[C@@]12O[C@@H]1C[C@H]1[C@@H]3CC[C@H]4C[C@@H](O)CC[C@]4(C)[C@H]3CC[C@@]12C; inactive
Cc1ccc(-n2nc3cc(Cl)c(NC(=O)c4ccco4)cc3n2)cc1; active
COC(=O)c1ccc(Nc2ncnc3sccc23)cc1; active
CCOC(=O)c1nc(Nc2ccc(C(=O)OC)cc2)c2ccccc2n1; inactive
COc1ccc([N+](=O)[O-])cc1N(CC(O)CN(CC(C)C)CC(C)C)S(=O)(=O)c1ccc(C)cc1 (configuration not stated); inactive

Just curious, what result did O=C(/C=C/NCc1ccc(F)cc1)c1ccccc1 get here?
active

Just curious, what result did Cc1c(NC(=O)c2cccnc2)c(=O)n(-c2ccccc2)n1C get here?
inactive

Just curious, what result did CC(=O)Nc1ccc(S(=O)(=O)N2N=NC3C2C2CC4C3(CN(C(=O)OC(C)(C)C)S4(=O)=O)O2)cc1 (configuration not stated) get here?
inactive

Just curious, what result did CC(C)C(=O)Nc1c(O)c2ccccc2[nH]c1=O get here?
inactive

Just curious, what result did NC(=O)c1cc(S(=O)(=O)NCCCc2ccco2)cs1 get here?
inactive

Just curious, what result did Cc1ccc2[nH]cc(CCNC(=O)C3CCCCC3)c2c1 get here?
inactive

Just curious, what result did CC(=O)Oc1cccc(N2C(=O)C3CC=C(Cl)CC3C2=O)c1 (configuration not stated) get here?
inactive

Just curious, what result did COc1ccc2c(c1)C=CC1(O2)N(CCO)c2ccccc2C1(C)C (configuration not stated) get here?
active

* * *

# Protocol notes: A qHTS for Small Molecule Inhibitors of Shiga Toxin
# Applied conditions: Vero cells, Shiga toxin protein synthesis inhibition reporter; at 38.7 µM
About 27,000 (9.3%) of roughly 290,000 compounds were called active. Rule as the data show it: active = inhibition mostly above about 28% (no sharp cut-off); inactive = mostly below about 43%. The entries come from a sample that favours actives as a whole.
Hello, when you answer, please use one of the following outcomes: 1 = active, 0 = inactive

Recorded results for 3 compounds are shown here.
O=C(NCc1cccs1)C1CCN(S(=O)(=O)c2ccc(Cl)cc2)CC1; 0
COc1ccc(C)cc1N(CC(=O)NC(C)c1ccccc1)S(C)(=O)=O (centres undefined); 0
CN(CC(=O)Nc1ccccc1C(F)(F)F)C(=O)Cc1ccccc1F; 0

Just curious, what result did Cc1ccc(CS(=O)(=O)CCC(=O)NCc2ccc(F)cc2)cc1 get here?
0

Just curious, what result did C=CCNc1ncnc2ccc(Br)cc12 get here?
0
